tested on: APESV; assay: Greenhouse experiment, pre-emergence treatment; type: in vivo, Apera spica-venti; details: pre-emergence method, application rate 0.25 kg/ha

>  <Compound>
Cc1cc(C)cc(Oc2cccc(Cl)c2Nc2nc(N)nc(C(C)(C)F)n2)c1 [Example 37]

>  <herbicidal activity against APESV>
very

$$$$

FYI, the data here is from patent US10029992B2.
